biological target: Cdk4/CyclinD1 (Homo sapiens (Human), UniProt P11802); assay: Cdk4 kinase inhibition assay with recombinant Cdk4/CyclinD1, Rb substrate, [33P]-ATP filter plate; details: 25 μM ATP, read-out: Cdk 4 IC50
Sequence (P11802 whole entry): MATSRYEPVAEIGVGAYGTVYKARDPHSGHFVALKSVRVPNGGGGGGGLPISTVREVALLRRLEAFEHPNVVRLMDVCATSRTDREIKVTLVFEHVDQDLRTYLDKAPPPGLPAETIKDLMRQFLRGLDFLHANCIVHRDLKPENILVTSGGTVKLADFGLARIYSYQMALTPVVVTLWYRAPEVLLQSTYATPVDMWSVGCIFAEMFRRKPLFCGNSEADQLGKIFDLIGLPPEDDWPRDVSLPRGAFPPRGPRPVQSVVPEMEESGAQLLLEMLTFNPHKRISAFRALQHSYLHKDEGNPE
Sequence (P24385 whole entry partner): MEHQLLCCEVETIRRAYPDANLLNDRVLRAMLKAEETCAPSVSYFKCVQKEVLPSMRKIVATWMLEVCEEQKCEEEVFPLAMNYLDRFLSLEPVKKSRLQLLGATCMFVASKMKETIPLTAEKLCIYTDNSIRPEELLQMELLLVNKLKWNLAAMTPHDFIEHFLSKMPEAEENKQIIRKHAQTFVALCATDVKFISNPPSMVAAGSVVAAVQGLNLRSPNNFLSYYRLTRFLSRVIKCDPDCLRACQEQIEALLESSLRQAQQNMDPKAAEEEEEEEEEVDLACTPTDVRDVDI
OBSERVED PROPERTY: IC50 (µM)

Here's what some known entries look like.
[[record]]
smiles_string = "O[C@H]1CCC[C@@H]1n1c2cnccc2c2cnc(Nc3ccc(N4CCNCC4)nn3)nc21"
observed_property = "IC50"
units_symbol = "µM"
result_value = 0.82

[[record]]
smiles_string = "C[C@H](O)Cn1c2cnccc2c2cnc(Nc3ccc(N4CC[C@@H](O)C4)nn3)nc21"
observed_property = "IC50"
units_symbol = "µM"
result_value = 0.0026

[[record]]
smiles_string = "C[C@@H](O)CNC1CCN(c2ccc(Nc3ncc4c5ccncc5n(C5CCCC5)c4n3)nn2)CC1"
observed_property = "IC50"
units_symbol = "µM"
result_value = 0.0017

[[record]]
smiles_string = "c1ccc2c(c1)c1cnc(Nc3ccc(N4CCNCC4)cn3)nc1n2C1CCCCC1"
observed_property = "IC50"
units_symbol = "µM"
result_value = 0.0013

[[record]]
smiles_string = "O=C(O)CNC1CCN(c2ccc(Nc3ncc4c5ccncc5n(C5CCCC5)c4n3)nn2)CC1"
observed_property = "IC50"
units_symbol = "µM"
result_value = 0.002


I. c1cc2c3cnc(Nc4ccc(NC5CCNCC5)nn4)nc3n(C3CCCC3)c2cn1
II. C[C@H](O)Cn1c2cnccc2c2cnc(Nc3ccc(N4CCNCC4)cn3)nc21
III. CNC1CCN(c2ccc(Nc3ncc4c5ccncc5n([C@H]5CCC[C@H]5O)c4n3)nn2)CC1
Q: Which order do these items take when sorted by rising IC50? List them. A complete answer lists every label in the requested sequence.
A: I, II, III
(I: 0.0162 µM, II: 0.077 µM, III: 0.258 µM)

* * *

biological target: Cdk6/CyclinD3 (Homo sapiens (Human), UniProt Q00534); test: Cdk6 kinase inhibition assay with recombinant Cdk6/CyclinD3, Rb substrate, [33P]-ATP filter plate; conditions: 25 μM ATP, read-out: Cdk 6 IC50
Sequence (Q00534 whole entry): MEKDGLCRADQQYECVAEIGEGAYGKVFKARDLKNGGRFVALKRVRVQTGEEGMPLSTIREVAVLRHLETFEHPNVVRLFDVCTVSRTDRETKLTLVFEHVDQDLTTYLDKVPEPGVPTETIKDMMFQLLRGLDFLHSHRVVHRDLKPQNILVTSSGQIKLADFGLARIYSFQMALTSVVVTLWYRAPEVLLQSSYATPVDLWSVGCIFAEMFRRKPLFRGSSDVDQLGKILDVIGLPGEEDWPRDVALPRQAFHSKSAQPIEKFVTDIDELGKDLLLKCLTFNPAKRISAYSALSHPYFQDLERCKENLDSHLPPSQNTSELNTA
Sequence (P30281 whole entry partner): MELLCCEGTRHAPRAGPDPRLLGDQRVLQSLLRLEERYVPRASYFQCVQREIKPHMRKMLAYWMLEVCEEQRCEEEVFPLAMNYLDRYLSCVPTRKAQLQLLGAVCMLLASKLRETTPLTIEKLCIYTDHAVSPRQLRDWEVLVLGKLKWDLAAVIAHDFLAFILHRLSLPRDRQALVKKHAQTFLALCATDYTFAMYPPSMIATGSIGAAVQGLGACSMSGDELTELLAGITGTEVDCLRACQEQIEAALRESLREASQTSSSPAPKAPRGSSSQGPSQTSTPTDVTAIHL
OBSERVED PROPERTY: IC50 (nM)

Would you please look over these solved cases?
[[record]]
compound = "COc1ccc(-n2c3cnccc3c3cnc(Nc4ccc(N5CCNCC5)cn4)nc32)cc1 [Example 16]"
assayed_target = "Cdk6/CyclinD3 (Homo sapiens (Human), UniProt Q00534)"
observed_property = "IC50"
units_symbol = "nM"
result_value = 21

[[record]]
compound = "O[C@H]1CCN(Cc2csc(Nc3ncc4c5ccnc(F)c5n(C5CCCC5)c4n3)n2)C1 [Example 181]"
assayed_target = "Cdk6/CyclinD3 (Homo sapiens (Human), UniProt Q00534)"
observed_property = "IC50"
units_symbol = "nM"
result_value = 26

[[record]]
compound = "CN(C)C1CCN(c2ccc(Nc3ncc4c5ccccc5n(C5CCCC5)c4n3)nn2)CC1 [Example 300]"
assayed_target = "Cdk6/CyclinD3 (Homo sapiens (Human), UniProt Q00534)"
observed_property = "IC50"
units_symbol = "nM"
result_value = 48

[[record]]
compound = "CN(C)C1CCN(c2ccc(Nc3ncc4c5ccncc5n(C5CCC5)c4n3)nn2)CC1 [Example 347]"
assayed_target = "Cdk6/CyclinD3 (Homo sapiens (Human), UniProt Q00534)"
observed_property = "IC50"
units_symbol = "nM"
result_value = 27

[[record]]
compound = "O[C@@H]1CCN(C2CCN(c3ccc(Nc4ncc5c6ccncc6n(C6CCCC6)c5n4)nn3)CC2)C1 [Example 449]"
assayed_target = "Cdk6/CyclinD3 (Homo sapiens (Human), UniProt Q00534)"
observed_property = "IC50"
units_symbol = "nM"
result_value = 36


a. c1cc2c3cnc(Nc4ccc(N[C@@H]5CCNC5)cn4)nc3n(C3CCCC3)c2cn1 [Example 63]
b. CCC(CC)n1c2cnccc2c2cnc(Nc3ccc(N4CC[C@@H](O)C4)nn3)nc21 [Example 162]
Q: Hi, I'm comparing a with b and wondering which one has the bigger number for IC50. Any idea? Write the label of whichever entry you select.
A: b

A. O=c1[nH]ccc2c3cnc(Nc4ccc(N5CCNCC5)cn4)nc3n(C3CCCC3)c12 [Example 53]
B. OC[C@H](O)CNC1CCN(c2ccc(Nc3ncc4c5ccncc5n(C5CCCC5)c4n3)nn2)CC1 [Example 446]
C. C[C@@H](O)Cn1c2cnccc2c2cnc(Nc3ccc(N4CCNCC4)cn3)nc21 [Example 356]
D. O[C@@H]1CCCN(C2CCN(c3ccc(Nc4ncc5c6ccncc6n(C6CCCC6)c5n4)nn3)CC2)C1 [Example 451]
E. COCCn1c2cnccc2c2cnc(Nc3ccc(N4CCNCC4)cn3)nc21 [Example 312]
Q: Ascending by IC50, please. # respond with the labels, arranged in the requested order
A: B, A, D, C, E
(B: 4.8 nM, A: 11 nM, D: 18 nM, C: 370 nM, E: 790 nM)

P. CN(C)CCNC1CCN(c2ccc(Nc3ncc4c5ccncc5n(C5CCCC5)c4n3)nn2)CC1 [Example 480]
Q. C[C@@H](O)CNC1CCN(c2ccc(Nc3ncc4c5ccncc5n(C5CCCC5)c4n3)nn2)CC1 [Example 441]
R. O=S1(=O)CCC(Nc2ccc(Nc3ncc4c5ccncc5n(C5CCCC5)c4n3)nn2)C1 (centres unmarked) [Example 93]
Q: # desc sort on IC50 across 3 compounds Please list each label once, in the requested order.
A: R, P, Q
(R: 15.9 nM, P: 10 nM, Q: 3.8 nM)
